Ref: BindingDB's records for doi:10.1021/acs.jmedchem.5b00570

# target entity: Glutamate receptor ionotropic, NMDA 1/2A (Homo sapiens, UniProt Q12879+Q05586)
# Sequence (Q12879 whole entry, other chains not shown): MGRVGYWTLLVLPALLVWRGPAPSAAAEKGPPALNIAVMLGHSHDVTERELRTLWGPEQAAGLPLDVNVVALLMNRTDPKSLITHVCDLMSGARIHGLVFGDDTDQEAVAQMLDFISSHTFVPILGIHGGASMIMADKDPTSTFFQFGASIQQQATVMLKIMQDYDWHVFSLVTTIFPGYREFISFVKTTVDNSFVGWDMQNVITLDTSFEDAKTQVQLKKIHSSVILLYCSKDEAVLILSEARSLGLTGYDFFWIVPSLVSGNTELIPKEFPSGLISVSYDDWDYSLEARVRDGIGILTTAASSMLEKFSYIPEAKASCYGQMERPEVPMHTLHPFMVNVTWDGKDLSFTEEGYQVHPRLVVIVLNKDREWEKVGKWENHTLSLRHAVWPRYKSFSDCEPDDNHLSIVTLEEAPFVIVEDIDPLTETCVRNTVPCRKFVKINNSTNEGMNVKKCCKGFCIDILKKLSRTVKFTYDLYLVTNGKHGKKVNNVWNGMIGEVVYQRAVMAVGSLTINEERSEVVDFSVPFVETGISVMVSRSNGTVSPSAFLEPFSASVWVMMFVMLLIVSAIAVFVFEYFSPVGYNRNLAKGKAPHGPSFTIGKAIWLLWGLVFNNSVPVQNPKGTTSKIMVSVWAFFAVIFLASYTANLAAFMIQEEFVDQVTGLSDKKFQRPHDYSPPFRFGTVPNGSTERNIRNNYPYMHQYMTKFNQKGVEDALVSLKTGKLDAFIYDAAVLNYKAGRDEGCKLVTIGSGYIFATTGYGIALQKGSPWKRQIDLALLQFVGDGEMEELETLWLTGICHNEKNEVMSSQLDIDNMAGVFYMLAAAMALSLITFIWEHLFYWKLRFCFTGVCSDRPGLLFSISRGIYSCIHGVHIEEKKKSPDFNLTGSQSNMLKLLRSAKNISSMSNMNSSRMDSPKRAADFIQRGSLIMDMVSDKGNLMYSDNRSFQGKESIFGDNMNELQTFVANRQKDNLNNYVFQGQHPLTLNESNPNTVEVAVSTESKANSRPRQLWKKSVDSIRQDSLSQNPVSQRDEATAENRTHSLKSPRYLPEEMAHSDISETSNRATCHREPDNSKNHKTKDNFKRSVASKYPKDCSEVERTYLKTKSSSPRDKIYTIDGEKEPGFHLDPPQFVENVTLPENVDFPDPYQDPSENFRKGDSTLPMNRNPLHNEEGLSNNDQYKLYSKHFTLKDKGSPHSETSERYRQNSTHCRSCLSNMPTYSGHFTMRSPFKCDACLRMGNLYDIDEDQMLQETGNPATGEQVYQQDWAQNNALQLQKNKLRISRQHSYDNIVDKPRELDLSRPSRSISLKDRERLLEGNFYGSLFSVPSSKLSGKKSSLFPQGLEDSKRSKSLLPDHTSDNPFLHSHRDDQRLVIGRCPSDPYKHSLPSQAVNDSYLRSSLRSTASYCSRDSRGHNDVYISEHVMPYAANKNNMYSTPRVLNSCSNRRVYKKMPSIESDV
# procedure text: Inhibition of recombinant GluN1/GluN2A receptor (unknown origin) expressed in HEK293 cells assessed as inhibition of glutamate-evoked current by whole-cell voltage-clamp method
recorded metric: pIC50
Give bare numbers, as −log10 of the molar value.

Looking for the measured pIC50 of C[C@H]1CC[C@H]2[C@@H]3CC[C@@H]4C[C@H](OS(=O)(=O)O)CC[C@]4(C)[C@H]3CC[C@]12C , can you help?
6.22

---

# target entity: Glutamate receptor ionotropic, NMDA 1/2D (Homo sapiens, UniProt Q05586+O15399)
# Sequence (O15399 whole entry, other chains not shown): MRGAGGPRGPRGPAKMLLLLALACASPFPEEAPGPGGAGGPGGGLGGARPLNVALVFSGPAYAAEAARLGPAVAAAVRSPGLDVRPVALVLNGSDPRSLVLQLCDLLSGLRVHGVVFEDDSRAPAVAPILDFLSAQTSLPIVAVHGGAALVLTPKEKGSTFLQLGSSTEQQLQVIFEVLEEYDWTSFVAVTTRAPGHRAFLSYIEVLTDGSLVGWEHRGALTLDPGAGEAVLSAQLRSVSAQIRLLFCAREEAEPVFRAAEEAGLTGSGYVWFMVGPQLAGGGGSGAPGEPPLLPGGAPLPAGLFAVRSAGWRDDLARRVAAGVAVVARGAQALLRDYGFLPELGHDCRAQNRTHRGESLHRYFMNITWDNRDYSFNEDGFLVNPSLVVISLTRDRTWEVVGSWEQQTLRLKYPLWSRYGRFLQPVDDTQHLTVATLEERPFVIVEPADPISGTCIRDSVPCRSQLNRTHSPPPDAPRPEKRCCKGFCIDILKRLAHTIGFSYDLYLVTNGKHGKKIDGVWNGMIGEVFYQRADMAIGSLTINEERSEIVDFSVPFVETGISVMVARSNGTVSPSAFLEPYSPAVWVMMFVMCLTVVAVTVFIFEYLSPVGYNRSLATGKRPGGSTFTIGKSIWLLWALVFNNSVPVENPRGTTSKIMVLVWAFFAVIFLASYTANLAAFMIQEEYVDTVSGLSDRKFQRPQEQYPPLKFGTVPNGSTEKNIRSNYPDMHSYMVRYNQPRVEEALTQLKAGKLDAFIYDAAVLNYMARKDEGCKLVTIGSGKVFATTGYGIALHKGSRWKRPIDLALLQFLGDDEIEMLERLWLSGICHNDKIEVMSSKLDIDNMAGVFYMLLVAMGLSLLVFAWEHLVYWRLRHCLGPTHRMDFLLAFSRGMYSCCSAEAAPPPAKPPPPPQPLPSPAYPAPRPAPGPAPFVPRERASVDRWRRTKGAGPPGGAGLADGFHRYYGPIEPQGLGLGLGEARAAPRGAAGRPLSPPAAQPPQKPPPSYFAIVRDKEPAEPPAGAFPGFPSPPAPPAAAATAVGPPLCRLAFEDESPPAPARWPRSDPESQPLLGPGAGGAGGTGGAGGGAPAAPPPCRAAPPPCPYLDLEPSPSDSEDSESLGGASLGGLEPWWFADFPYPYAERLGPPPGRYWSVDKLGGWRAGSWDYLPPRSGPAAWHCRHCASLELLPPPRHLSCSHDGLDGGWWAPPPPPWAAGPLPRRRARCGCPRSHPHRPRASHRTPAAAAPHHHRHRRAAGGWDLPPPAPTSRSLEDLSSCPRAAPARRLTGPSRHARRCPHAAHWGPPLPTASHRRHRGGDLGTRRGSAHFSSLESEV
# procedure text: Inhibition of recombinant GluN1/GluN2D receptor (unknown origin) expressed in HEK293 cells assessed as inhibition of glutamate-evoked current by whole-cell voltage-clamp method
recorded metric: IC50 (nM)
Answers are plain numbers, in nM.

Looking for the measured IC50 of C[C@H]1CC[C@H]2[C@@H]3CC[C@@H]4C[C@H](OS(=O)(=O)O)CC[C@]4(C)[C@H]3CC[C@]12C , can you help?
500
